- ASSAYED TARGET: T1, human PCSK9 (human, UniProt Q8NBP7 31-692, limits assumed)
- T1 construct: It carried an AlexaFluor647 label in the TR-FRET assay only; also called hPCSK9; wild type human PCSK9
- T1 sequence (Q8NBP7 31-692 limits assumed): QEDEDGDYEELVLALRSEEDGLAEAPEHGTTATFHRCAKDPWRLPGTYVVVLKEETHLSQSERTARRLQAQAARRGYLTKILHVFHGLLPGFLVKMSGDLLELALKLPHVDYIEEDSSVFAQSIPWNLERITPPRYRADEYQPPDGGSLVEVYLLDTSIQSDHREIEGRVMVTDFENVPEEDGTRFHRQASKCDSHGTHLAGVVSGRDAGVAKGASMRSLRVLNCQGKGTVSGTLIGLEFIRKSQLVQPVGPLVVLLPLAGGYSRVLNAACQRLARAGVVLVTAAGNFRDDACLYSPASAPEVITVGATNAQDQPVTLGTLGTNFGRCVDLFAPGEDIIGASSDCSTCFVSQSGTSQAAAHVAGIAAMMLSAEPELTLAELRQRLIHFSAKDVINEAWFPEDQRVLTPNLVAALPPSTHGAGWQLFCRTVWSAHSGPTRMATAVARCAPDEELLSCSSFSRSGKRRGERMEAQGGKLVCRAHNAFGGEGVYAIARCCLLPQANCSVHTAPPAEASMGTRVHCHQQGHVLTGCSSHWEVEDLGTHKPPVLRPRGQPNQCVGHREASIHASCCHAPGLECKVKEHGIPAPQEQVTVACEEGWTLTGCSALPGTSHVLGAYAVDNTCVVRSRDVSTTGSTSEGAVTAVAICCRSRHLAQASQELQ
- MEASUREMENT NOTES: SPR (Biacore); Fab captured on anti-Fab IgG, PCSK9 injected; 1:1 Langmuir fit

[
  {
    "BINDER": "AX425 Fab (Fab, V domains shown, also called AX189_VH 55N to D) VH: EVQLLESGGGLVQPGGSLRLSCKASGYTFSSYWMHWVRQAPGKGLEWIGRIDPYDGGTKYNEKFKGKATISRDNSKNTLYLQMNSLRAEDTAVYYCARYGYYLGSYAMDYWGQGTLVTVSS VL: DIQMTQSPSSLSASVGDRVTITCRASQDVSRYLTWYQQKPGKAPKLLIYAASSLQSGVPSRFSGSGSGTDFTLTISSLQPEDFATYYCQAYDYSLSGYVFGGGTKVEIK",
    "UNIT NAME": "nM",
    "Kd": 17.6
  },
  {
    "BINDER": "AX195 Fab (Fab, V domains shown) VH: EVQLLESGGGLVQPGGSLRLSCKASGYTFSSYWMHWVRQAPGKGLEWIGRIDPYNGGTKYNEKFKGKATISRDNSKNTLYLQMNSLRAEDTAVYYCARYGYYLGSYAMDYWGQGTLVTVSS VL: DIQMTQSPSSLSASVGDRVTITCRASQAVSKYLAWYQQKPGKAPKLLIYAASSLQSGVPSRFSGSGSGTDFTLTISSLQPEDFATYYCQAYDYSLGDYVFGGGTKVEIK",
    "UNIT NAME": "nM",
    "Kd": 9.9
  },
  {
    "BINDER": "AX423 Fab (Fab, V domains shown, also called AX189_VH 56G to T) VH: EVQLLESGGGLVQPGGSLRLSCKASGYTFSSYWMHWVRQAPGKGLEWIGRIDPYNTGTKYNEKFKGKATISRDNSKNTLYLQMNSLRAEDTAVYYCARYGYYLGSYAMDYWGQGTLVTVSS VL: DIQMTQSPSSLSASVGDRVTITCRASQDVSRYLTWYQQKPGKAPKLLIYAASSLQSGVPSRFSGSGSGTDFTLTISSLQPEDFATYYCQAYDYSLSGYVFGGGTKVEIK",
    "UNIT NAME": "nM",
    "Kd": 32.8
  },
  {
    "BINDER": "AX194 Fab (Fab, V domains shown) VH: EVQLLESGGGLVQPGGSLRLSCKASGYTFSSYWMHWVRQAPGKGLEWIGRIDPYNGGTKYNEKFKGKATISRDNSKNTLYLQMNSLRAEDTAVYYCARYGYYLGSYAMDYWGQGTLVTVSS VL: DIQMTQSPSSLSASVGDRVTTTCRASQAVSRYLTWYQQKPGKAPKLLIYAASSLQSGVPSRFSGSGSGTDFTLTISSLQPEDFATYYCQAYDYSLGAYVFGGGTKVEIK",
    "UNIT NAME": "nM",
    "Kd": 6.1
  },
  {
    "BINDER": "AX424 Fab (Fab, V domains shown, also called AX189_VH 55N to T) VH: EVQLLESGGGLVQPGGSLRLSCKASGYTFSSYWMHWVRQAPGKGLEWIGRIDPYTGGTKYNEKFKGKATISRDNSKNTLYLQMNSLRAEDTAVYYCARYGYYLGSYAMDYWGQGTLVTVSS VL: DIQMTQSPSSLSASVGDRVTITCRASQDVSRYLTWYQQKPGKAPKLLIYAASSLQSGVPSRFSGSGSGTDFTLTISSLQPEDFATYYCQAYDYSLSGYVFGGGTKVEIK",
    "UNIT NAME": "nM",
    "Kd": 4.2
  },
  {
    "BINDER": "AX9 Fab (Fab, V domains shown) VH: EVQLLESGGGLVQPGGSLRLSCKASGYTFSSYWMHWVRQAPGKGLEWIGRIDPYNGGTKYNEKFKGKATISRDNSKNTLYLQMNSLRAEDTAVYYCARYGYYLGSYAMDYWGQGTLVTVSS VL: DIQMTQSPSSLSASVGDRVTITCRASQDVSKYLAWYQQKPGKAPKLLIYAASSLQSGVPSRFSGSGSGTDFTLTISSLQPEDFATYYCQVYDSSPNAYVFGGGTKVEIKR",
    "UNIT NAME": "nM",
    "Kd": 23.9
  },
  {
    "BINDER": "AX199 Fab (Fab, V domains shown) VH: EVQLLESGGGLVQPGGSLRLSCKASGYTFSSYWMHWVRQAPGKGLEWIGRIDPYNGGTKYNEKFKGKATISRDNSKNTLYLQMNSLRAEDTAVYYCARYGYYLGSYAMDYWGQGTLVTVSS VL: DIQMTQSPSSLSASVGDRVTITCRASQSVSNYLHWYQQKPGKAPKLLIYAASSLQSGVPSRFSGSGSGTDFTLTISSLQPEDFATYYCQAYDYSLGPYVFGGGTKVEIK",
    "UNIT NAME": "nM",
    "Kd": 26.2
  },
  {
    "BINDER": "AX189 Fab (Fab, V domains shown, The heavy chain is the Fd chain) VH: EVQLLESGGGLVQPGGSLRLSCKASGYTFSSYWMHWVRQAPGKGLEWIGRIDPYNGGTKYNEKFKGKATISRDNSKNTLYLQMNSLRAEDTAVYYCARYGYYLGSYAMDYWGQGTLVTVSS VL: DIQMTQSPSSLSASVGDRVTITCRASQDVSRYLTWYQQKPGKAPKLLIYAASSLQSGVPSRFSGSGSGTDFTLTISSLQPEDFATYYCQAYDYSLSGYVFGGGTKVEIKR",
    "UNIT NAME": "nM",
    "Kd": 6.3
  }
]
